Where these numbers come from: ChEMBL document CHEMBL1144297

For each of the compounds below, state its MIC.
tested on: Staphylococcus aureus; assay: Minimum inhibitory concentration against Staphylococcus aureus L613 strain was determined

>>> assay_result("CCCCCCCCCCCC(=O)N[C@@H](C(=O)O)C1NC(=O)[C@H](Cc2ccccc2)NC(=O)[C@H](NC(=O)[C@H](N)CC(C)C)Cc2ccc(c([N+](=O)[O-])c2)Oc2cc1cc(OCc1ccccc1)c2OC.Cl (stereo not given in full)")
"128 µg/mL"
>>> assay_result("CCCCCCCCCCCC(=O)NC1C(Oc2cc3cc(c2OC)Oc2ccc(cc2[N+](=O)[O-])C[C@@H](NC(=O)[C@H](N)CC(C)C)C(=O)N[C@@H](Cc2ccccc2)C(=O)NC3[C@@H](NC(C)=O)C(=O)O)OC(O)C(O)C1O.Cl (stereo not given in full)")
"> 1020 µg/mL"
>>> assay_result("CCCCCCCCCCCC(=O)N[C@@H](C(=O)O)C1NC(=O)[C@H](Cc2ccccc2)NC(=O)[C@H](NC(=O)[C@H](N)CC(C)C)Cc2ccc(cc2)Oc2cc1cc(O)c2OC.Cl (stereo not given in full)")
"> 128 µg/mL"

Please report MIC for every entry that follows.
1. COC(=O)[C@H](N)C1NC(=O)[C@H](Cc2ccccc2)NC(=O)[C@H](NC(=O)[C@H](N)CC(C)C)Cc2ccc(c([N+](=O)[O-])c2)Oc2cc1cc(O)c2OC.Cl (stereo not given in full)
2. COC(=O)[C@@H](C1NC(=O)[C@H](Cc2ccccc2)NC(=O)[C@H](NC(=O)[C@H](N)CC(C)C)Cc2ccc(c([N+](=O)[O-])c2)Oc2cc1cc(OC)c2OC)N(C)C.Cl (stereo not given in full)

## Output
1. > 1020 µg/mL
2. > 128 µg/mL

###

test system: Enterococcus faecium; assay: Minimum inhibitory concentration against vancomycin sensitive Enterococci faecium L568 strain was determined; format: functional; details: Enterococcus faecium; read-out: MIC
Starred links: 1 amine or outer side, 2 acyl side, 3 side chain; linkers in the order of their positions; H or OH if unused. Positions of bridges follow the written chain, without caps; N, C: chain ends. Non-standard residues stand in square brackets, D forms with d. Residues, ends and D or L forms follow the SMILES beside them. *: point of attachment. X1 = O=C1C[C@@H](C(=O)[*:2])N([*:1])C[C@H]1CS[C@@H]1CN2CCC1CC2; NMePhe(4-NMe2) = CN[C@@H](Cc1ccc(N(C)C)cc1)C(=O)O; Picolinoyl(3-OH) = O=C(c1ncccc1O)*; Phg = N[C@H](C(=O)O)c1ccccc1; dAbu = CC[C@@H](N)C(=O)O
recorded.metric: MIC (µg/mL)
Give bare numbers, in µg/mL.

## Input Query: MIC; subject: CCN(CC)CCS(=O)(=O)[C@@H]1CCN2C(=O)c3coc(n3)CC(=O)C[C@H](O)/C=C(C)/C=C/CNC(=O)/C=C/[C@@H](C)[C@@H](C(C)C)OC(=O)[C@@H]12.CC[C@H]1NC(=O)[C@@H](NC(=O)c2ncccc2O)[C@@H](C)OC(=O)[C@H](c2ccccc2)NC(=O)[C@@H]2CC(=O)[C@H](CS[C@@H]3CN4CCC3CC4)CN2C(=O)[C@H](Cc2ccc(N(C)C)cc2)N(C)C(=O)[C@@H]2CCCN2C1=O [QUINUPRISTIN/DALFOPRISTIN] ({Picolinoyl(3-OH)}-T[dAbu]P[NMePhe(4-NMe2)][X1][Phg]; ester 1-C)
## Output 4

###

test system: Enterococcus faecium; experiment: Minimum inhibitory concentration against vancomycin sensitive Enterococci faecium L568 strain was determined; format: functional; details: Enterococcus faecium; read-out: MIC
recorded.metric: MIC (µg/mL)
One number for each entry, in µg/mL.

>>> assay_result("CCCCCCCCCCCC(=O)N[C@@H](C(=O)O)C1NC(=O)[C@H](Cc2ccccc2)NC(=O)[C@H](NC(=O)[C@H](N)CC(C)C)Cc2ccc(c([N+](=O)[O-])c2)Oc2cc1cc(OCc1ccccc1)c2OC.Cl (stereo not given in full)")
256

## Input Form field: MIC recorded for CCCCCCCCCCCC(=O)N[C@@H](C(=O)O)C1NC(=O)[C@H](Cc2ccccc2)NC(=O)[C@H](NC(=O)[C@H](N)CC(C)C)Cc2ccc(c([N+](=O)[O-])c2)Oc2cc1cc(O)c2OC.Cl (stereo in doubt; 2d) with Enterococcus faecium (enter value)
## Output 128

###

system: Staphylococcus aureus; assay: Minimum inhibitory concentration against Staphylococcus aureus L613 strain was determined
recorded.metric: MIC (µg/mL)
One number for each entry, in µg/mL.

>>> assay_result("CCCCCCCCCCCC(=O)N[C@@H](C(=O)O)C1NC(=O)[C@H](Cc2ccccc2)NC(=O)[C@H](NC(=O)[C@H](N)CC(C)C)Cc2ccc(c([N+](=O)[O-])c2)Oc2cc1cc(O)c2OC.Cl (stereo in doubt; 2d)")
64

Switching to the query record.
## Input Form field: MIC recorded for "CC(=O)N[C@@H]1[C@H](Oc2c3cc4cc2Oc2ccc(cc2Cl)[C@@H](O[C@@H]2O[C@@H](CO)[C@@H](O)[C@H](O)[C@@H]2NC(C)=O)[C@@H]2NC(=O)[C@H](NC(=O)[C@@H]4NC(=O)[C@H]4NC(=O)[C@@H](Cc5ccc(c(Cl)c5)O3)NC(=O)[C@H](N)c3ccc(O)c(c3)Oc3cc(O)cc4c3)c3ccc(O)c(c3)-c3c(O[C@H]4O[C@H](CO)[C@@H](O)[C@@H](O)[C@@H]4O)cc(O)cc3[C@@H](C(=O)O)NC2=O)O[C@@H](CO)[C@@H](O)[C@@H]1O" with Staphylococcus aureus (enter value)
## Output 1

###

system: Enterococcus faecium; experiment: Minimum inhibitory concentration against vancomycin sensitive Enterococci faecium L568 strain was determined; assay type: functional; details: Enterococcus faecium; read-out: MIC
recorded.metric: MIC

>>> assay_result("COC(=O)[C@@H](C1NC(=O)[C@H](Cc2ccccc2)NC(=O)[C@H](NC(=O)[C@H](N)CC(C)C)Cc2ccc(c([N+](=O)[O-])c2)Oc2cc1cc(OC)c2OC)N(C)C.Cl (stereo partly drawn)")
"> 128 µg/mL"
>>> assay_result("CCCCCCCCCCCC(=O)N[C@@H](C(=O)O)C1NC(=O)[C@H](Cc2ccccc2)NC(=O)[C@H](NC(=O)[C@H](N)CC(C)C)Cc2ccc(cc2)Oc2cc1cc(O)c2OC.Cl (stereo partly drawn)")
"> 128 µg/mL"

## Input Query: MIC; subject: COC(=O)[C@H](N)C1NC(=O)[C@H](Cc2ccccc2)NC(=O)[C@H](NC(=O)[C@H](N)CC(C)C)Cc2ccc(c([N+](=O)[O-])c2)Oc2cc1cc(O)c2OC.Cl (stereo partly drawn)
## Output > 1020 µg/mL

###

For each of the compounds below, state its MIC.
test system: Staphylococcus aureus; assay: Minimum inhibitory concentration against Staphylococcus aureus L613 strain was determined

>>> assay_result("CCCCCCCCCCCNC(=O)N[C@@H](C(=O)O)C1NC(=O)[C@H](Cc2ccccc2)NC(=O)[C@H](N)Cc2ccc(c([N+](=O)[O-])c2)Oc2cc1cc(O)c2OC.Cl (stereo partly drawn)")
"> 128 µg/mL"

Please report MIC for every entry that follows.
1. CCCCCCCCCCCNC(=O)N[C@@H](C(=O)O)C1NC(=O)[C@H](Cc2ccccc2)NC(=O)[C@H](NC(=O)[C@H](N)CC(C)C)Cc2ccc(c([N+](=O)[O-])c2)Oc2cc1cc(OC1OC(O)C(O)C(O)C1NC(=O)CCCCCCCCCCC)c2OC.Cl (stereo partly drawn)
2. COc1c(O)cc2cc1Oc1ccc(cc1[N+](=O)[O-])C[C@@H](NC(=O)[C@H](N)CC(C)C)C(=O)N[C@@H](Cc1ccccc1)C(=O)NC2[C@@H](NC(C)=O)C(=O)O.Cl (stereo partly drawn)

## Output
["> 256 µg/mL", "> 1020 µg/mL"]
